Here the recorded GI50 is given for each entry.
Target entity: BAF3 FL KIT EX11DEL/D816H (Homo sapiens, UniProt P10721, D816H, cells depend on it, form not given)
Construct: BAF3 FL KIT EX11DEL/D816H
Sequence (P10721 with tags, fused parts or gaps DEL557-558/D816H, form open): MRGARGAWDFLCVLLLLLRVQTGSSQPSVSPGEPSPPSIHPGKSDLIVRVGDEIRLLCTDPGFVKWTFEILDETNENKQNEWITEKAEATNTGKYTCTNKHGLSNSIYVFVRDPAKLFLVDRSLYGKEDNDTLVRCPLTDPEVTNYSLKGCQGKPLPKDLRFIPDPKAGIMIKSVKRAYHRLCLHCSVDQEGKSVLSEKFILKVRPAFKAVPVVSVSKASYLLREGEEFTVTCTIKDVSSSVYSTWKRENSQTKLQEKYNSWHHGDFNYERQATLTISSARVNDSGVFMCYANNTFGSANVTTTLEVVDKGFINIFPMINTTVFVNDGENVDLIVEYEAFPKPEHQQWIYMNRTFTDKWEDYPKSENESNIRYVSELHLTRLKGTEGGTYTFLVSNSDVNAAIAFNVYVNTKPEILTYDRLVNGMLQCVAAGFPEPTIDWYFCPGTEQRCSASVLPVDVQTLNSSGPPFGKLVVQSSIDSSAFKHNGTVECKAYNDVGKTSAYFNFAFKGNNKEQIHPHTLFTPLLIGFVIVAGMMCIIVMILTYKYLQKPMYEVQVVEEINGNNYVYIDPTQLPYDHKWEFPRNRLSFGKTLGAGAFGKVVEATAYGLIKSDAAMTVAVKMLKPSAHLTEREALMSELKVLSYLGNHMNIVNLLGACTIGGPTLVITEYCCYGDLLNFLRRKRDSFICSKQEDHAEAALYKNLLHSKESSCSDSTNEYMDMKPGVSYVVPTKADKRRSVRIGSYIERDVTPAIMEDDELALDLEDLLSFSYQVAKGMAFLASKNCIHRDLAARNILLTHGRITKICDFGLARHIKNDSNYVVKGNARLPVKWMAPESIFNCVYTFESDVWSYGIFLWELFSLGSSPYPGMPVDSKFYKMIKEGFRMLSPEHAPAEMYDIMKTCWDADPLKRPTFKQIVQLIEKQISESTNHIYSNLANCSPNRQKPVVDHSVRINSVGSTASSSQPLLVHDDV
Protocol description: c-Kit assay: Ba/F3 KIT mutant cell viability (Cell Titer-Glo, 72 hours)
Assay type: cell-based
Run parameters: viability after 72 hours

Consider the worked cases shown below.
[[record]]
compound = "Cc1ccc(C(=O)Nc2ccc(CN3CCN(C)CC3)c(C(F)(F)F)c2)cc1C#Cc1cnc(NC(=O)C2CC2)s1"
obs_value = "10 to 50 nM"

[[record]]
compound = "Cc1ccc(C(=O)Nc2cc(C(F)(F)F)ccn2)cc1C#Cc1cnc(NC(=O)NCC(C)(C)O)s1"
obs_value = "10 to 50 nM"

[[record]]
compound = "CNC(=O)Nc1ncc(C#Cc2cccc(C(=O)Nc3cc(C(F)(F)F)ccn3)c2)s1"
obs_value = "10 to 50 nM"


// query Endpoint output: GI50 of COCCNC(=O)Nc1ncc(C#Cc2cc(C(=O)Nc3cc(C(F)(F)F)ccn3)ccc2C)s1 . Value?
// result 10 to 50 nM

// query Entry Cc1ccc(C(=O)Nc2cc(C(F)(F)F)ccn2)cc1C#Cc1cnc(NC(=O)NCc2ccncc2)s1 : reported GI50 = ?
// result 10 to 50 nM

// query GI50 lookup needed for Cc1ccc(C(=O)Nc2cc(C(F)(F)F)ccn2)cc1C#Cc1cnc(NC(=O)N(C)CC(C)(C)O)s1 , thanks.
// result 10 to 50 nM

// query Returns the measured GI50 for the input compound. Input: CNC(=O)Nc1ncc(C#Cc2cc(C(=O)Nc3cc(C(F)(F)F)ccn3)ccc2C)s1
// result < 10 nM

// query Fill blank: measured GI50 of the compound Cc1ccc(C(=O)Nc2cc(C(F)(F)F)ccn2)cc1C#Cc1cnc(NC(=O)N(C)C2CCC(N)CC2)s1 (centres unmarked) is ____.
// result 50 to 100 nM

// query Param item = Cc1ccc(C(=O)Nc2cc(C(F)(F)F)ccn2)cc1C#Cc1cnc(NC(=O)NCCN2CCCC2)s1 ; retrieve measured GI50.
// result 10 to 50 nM

// query Which GI50 is reported for this compound? Cc1ccc(C(=O)Nc2cc(C(F)(F)F)ccn2)cc1C#Cc1cnc(NC(=O)N2CCNCC2)s1
// result 10 to 50 nM

// query So what's the measured GI50 for this one? Cc1ccc(C(=O)Nc2cc(C(F)(F)F)ccn2)cc1C#Cc1cnc(NC(=O)NCC2CCN(C)CC2)s1
// result 10 to 50 nM

// query Which value of GI50 has been reported for Cc1ccc(NC(=O)c2cc(C(F)(F)F)ccn2)cc1C#Cc1cnc(NC(=O)N(C)C2CCN(C)CC2)s1 in the records?
// result 10 to 50 nM

// query Can you look up the measured GI50 of Cc1ccc(NC(=O)c2cc(C(F)(F)F)ccn2)cc1C#Cc1cnc(NC(=O)N(C)CCN2CCN(C)CC2)s1 for me?
// result 10 to 50 nM

// query Please give the measured GI50 for this compound: CCN(CC)CCN(C)C(=O)Nc1ncc(C#Cc2cc(NC(=O)c3cc(C(F)(F)F)ccn3)ccc2C)s1
// result 50 to 100 nM

// query Need GI50, item Cc1ccc(C(=O)Nc2cc(C(F)(F)F)ccn2)cc1C#Cc1cnc(NC(=O)N2CCN(C)CC2)s1
// result 10 to 50 nM

// query What does the data say about its GI50? Entry: NC(=O)Nc1ncc(C#Cc2ccc(F)c(C(=O)Nc3cc(C(F)(F)F)ccn3)c2)s1
// result 100 to 10000 nM

// query Quick check: GI50 of Cc1ccc(C(=O)Nc2cc(C(F)(F)F)ccn2)cc1C#Cc1cnc(NC(=O)NCCN)s1 ?
// result 50 to 100 nM

// query Look up GI50: Cc1ccc(C(=O)Nc2cc(C(F)(F)F)ccn2)cc1C#Cc1cnc(NC(=O)N2CCC(N(C)C)C2)s1 (centres unmarked)
// result 10 to 50 nM

// query Please give the measured GI50 for this compound: Cc1ccc(C(=O)Nc2cc(C(F)(F)F)ccn2)cc1C#Cc1cnc(NC(=O)C2CC2)s1
// result 10 to 50 nM

// query Given the compound Cc1ccc(C(=O)Nc2cc(C(F)(F)F)ccn2)cc1C#Cc1cnc(NC(=O)N(C)CCN2CCCC2)s1 , what is its reported GI50?
// result 10 to 50 nM

// query // lookup GI50 for Cc1ccc(C(=O)Nc2cc(C(F)(F)F)ccn2)cc1C#Cc1cnc(NC(=O)N(C)C2CN(C)C2)s1
// result 100 to 10000 nM

// query Could you tell me which GI50 is on file for Cc1ccc(C(=O)Nc2cc(C(F)(F)F)ccn2)cc1C#Cc1cnc(NC(=O)C(C)(C)C)s1 ?
// result 100 to 10000 nM

// query Query: GI50; subject: Cc1ccc(C(=O)Nc2cc(C(F)(F)F)ccn2)cc1C#Cc1cnc(NC(=O)N2CCC(C)CC2)s1
// result 10 to 50 nM

// query Value lookup for GI50; key = COCCN(C)C(=O)Nc1ncc(C#Cc2cc(C(=O)Nc3ccc(C#N)c(C(F)(F)F)c3)ccc2C)s1
// result 10 to 50 nM

// query For the compound Cc1ccc(C(=O)Nc2cc(C(F)(F)F)ccn2)cc1C#Cc1cnc(NC(N)=O)s1 , what GI50 is on record?
// result 10 to 50 nM

// query Which value of GI50 has been reported for CNC(=O)Nc1ncc(C#Cc2cc(C(=O)Nc3cc(C(F)(F)F)ccn3)ccc2F)s1 in the records?
// result 10 to 50 nM

// query # get_value(readout='GI50', item= Cc1ccc(C(=O)Nc2cc(C(F)(F)F)ccn2)cc1C#Cc1cnc(NC(=O)NC2CC2)s1 )
// result 10 to 50 nM

// query Give the measured GI50 of Cc1ccc(C(=O)Nc2cc(C(F)(F)F)ccn2)cc1C#Cc1cnc(NC(=O)NCCN2CCOCC2)s1 .
// result 10 to 50 nM

// query Query: GI50; subject: CC(=O)Nc1ncc(C#Cc2cc(C(=O)Nc3cc(C(F)(F)F)ccn3)ccc2C)s1
// result 10 to 50 nM

* * *

Target entity: BAF3 FL KIT EX11DEL (Homo sapiens, UniProt P10721, cells depend on it, form not given)
Construct: BAF3 FL KIT EX11DEL
Sequence (P10721 with tags, fused parts or gaps DEL557-558): as the sequence (P10721 with tags, fused parts or gaps DEL557-558/D816H, form open) above, with H814D counted along it
Protocol description: c-Kit assay: Ba/F3 KIT mutant cell viability (Cell Titer-Glo, 72 hours)
Format: cell-based
Run parameters: viability after 72 hours
Endpoint name: GI50

Sample answers from the record:
[[record]]
molecule = "Cc1ccc(C(=O)Nc2cc(C(F)(F)F)ccn2)cc1C#Cc1cnc(NC(=O)C(C)(C)C)s1 [I-52]"
endpoint_name = "GI50"
obs_value = "10 to 50 nM"

[[record]]
molecule = "Cc1ccc(C(=O)Nc2cc(C(F)(F)F)ccn2)cc1C#Cc1cnc(NC(=O)N(C)CC(C)(C)O)s1 [I-21]"
endpoint_name = "GI50"
obs_value = "< 10 nM"

[[record]]
molecule = "Cc1ccc(C(=O)Nc2cc(C(F)(F)F)ccn2)cc1C#Cc1cnc(NC(=O)N2CCN(C)CC2)s1 [I-23]"
endpoint_name = "GI50"
obs_value = "< 10 nM"


# ---- query molecule ----
// query GI50 lookup needed for Cc1ccc(C(=O)Nc2cc(C(F)(F)F)ccn2)cc1C#Cc1cnc(NC(=O)NCCCCN)s1 [I-31] , thanks.
// result 10 to 50 nM

* * *

Target entity: BAF3 FL KIT EX11DEL/T670I (Homo sapiens, UniProt P10721, T670I, cells depend on it, form not given)
Construct: BAF3 FL KIT EX11DEL/T670I
Sequence (P10721 with tags, fused parts or gaps DEL557-558/T670I, form open): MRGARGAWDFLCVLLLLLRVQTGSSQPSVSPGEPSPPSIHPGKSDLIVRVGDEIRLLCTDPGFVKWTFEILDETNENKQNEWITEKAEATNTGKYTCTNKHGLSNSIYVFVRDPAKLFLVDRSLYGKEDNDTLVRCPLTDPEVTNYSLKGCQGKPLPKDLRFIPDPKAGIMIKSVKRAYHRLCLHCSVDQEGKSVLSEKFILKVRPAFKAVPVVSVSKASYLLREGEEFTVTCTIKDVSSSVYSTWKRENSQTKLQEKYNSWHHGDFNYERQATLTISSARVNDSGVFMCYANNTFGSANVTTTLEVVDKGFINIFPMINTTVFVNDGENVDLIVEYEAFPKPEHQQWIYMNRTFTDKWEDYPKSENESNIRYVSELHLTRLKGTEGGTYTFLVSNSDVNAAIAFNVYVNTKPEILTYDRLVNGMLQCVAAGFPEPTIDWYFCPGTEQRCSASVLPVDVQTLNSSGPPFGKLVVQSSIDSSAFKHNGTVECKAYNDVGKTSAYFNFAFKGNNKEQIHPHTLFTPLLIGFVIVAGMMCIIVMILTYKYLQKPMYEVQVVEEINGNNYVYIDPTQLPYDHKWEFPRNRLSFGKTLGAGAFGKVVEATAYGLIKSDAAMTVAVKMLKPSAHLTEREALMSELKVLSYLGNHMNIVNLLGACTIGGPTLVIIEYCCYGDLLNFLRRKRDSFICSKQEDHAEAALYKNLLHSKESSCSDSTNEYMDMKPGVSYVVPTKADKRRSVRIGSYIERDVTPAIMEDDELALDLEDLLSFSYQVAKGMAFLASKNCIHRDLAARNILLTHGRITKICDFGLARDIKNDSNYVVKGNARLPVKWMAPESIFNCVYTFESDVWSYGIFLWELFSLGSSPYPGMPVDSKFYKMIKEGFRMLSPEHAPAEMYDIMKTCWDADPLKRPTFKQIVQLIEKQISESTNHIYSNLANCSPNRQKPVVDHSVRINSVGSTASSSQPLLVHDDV
Protocol description: c-Kit assay: Ba/F3 KIT mutant cell viability (Cell Titer-Glo, 72 hours)
Format: cell-based
Run parameters: viability after 72 hours
Endpoint name: GI50

Known results for compounds:
[[record]]
smi = "COCCN(C)C(=O)Nc1ncc(C#Cc2cc(C(=O)Nc3ccc(CN4CCCC4)c(C(F)(F)F)c3)ccc2C)s1"
obs_value = "10 to 50 nM"

[[record]]
smi = "CNC(=O)Nc1ncc(C#Cc2cc(C(=O)Nc3cc(C(F)(F)F)ccn3)ccc2F)s1"
obs_value = "< 10 nM"

[[record]]
smi = "Cc1ccc(C(=O)Nc2cc(C(F)(F)F)ccn2)cc1C#Cc1cnc(NC(=O)NCCCCN)s1"
obs_value = "10 to 50 nM"


// query // lookup GI50 for Cc1ccc(C(=O)Nc2cc(C(F)(F)F)ccn2)cc1C#Cc1cnc(NC(=O)NCCN2CCCC2)s1
// result 50 to 100 nM

* * *

Reported values of GI50 for individual entries
Target entity: BAF3 FL KIT EX11DEL/T670I (Homo sapiens, UniProt P10721, T670I, cells depend on it, form not given)
Construct: BAF3 FL KIT EX11DEL/T670I
Protocol description: c-Kit assay: Ba/F3 KIT mutant cell viability (Cell Titer-Glo, 72 hours)
Type: cell-based
Run parameters: viability after 72 hours

// query Endpoint output: GI50 of COCCN(C)C(=O)Nc1ncc(C#Cc2cc(C(=O)Nc3cc(C(F)(F)F)ccn3)ccc2C)s1 . Value?
// result < 10 nM

// query Request the reported GI50 associated with Cc1ccc(C(=O)Nc2cc(C(F)(F)F)ccn2)cc1C#Cc1cnc(NC(=O)NCCN(C)C)s1
// result 10 to 50 nM

// query Query (molecule): Cc1ccc(NC(=O)c2cc(C(F)(F)F)ccn2)cc1C#Cc1cnc(NC(=O)N(C)CCN2CCN(C)CC2)s1 ; field requested: GI50
// result 50 to 100 nM

// query # input molecule: Cc1ccc(NC(=O)c2cc(C(F)(F)F)ccn2)cc1C#Cc1cnc(NC(=O)N(C)CCO)s1 ; wanted: its GI50
// result 50 to 100 nM

// query What GI50 value was documented for this molecule, CCN(CC)CCN(C)C(=O)Nc1ncc(C#Cc2cc(NC(=O)c3cc(C(F)(F)F)ccn3)ccc2C)s1 ?
// result 100 to 10000 nM
